# Tested system: DNA topoisomerase 2-alpha (Homo sapiens)
# Experimental details: Inhibition of topoisomerase 2 (unknown origin)-mediated kinetoplast DNA decatenation assessed as intensity of supercoiled DNA after 30 mins by agarose gel electrophoresis relative to etoposide
Measure: fold change (FC)

Examples with answers:
>  <Compound structure string>
CC1(C)CC[C@]2(C(=O)NCc3ccccc3)CC[C@]3(C)C(=CC[C@@H]4[C@@]5(C)CC[C@H](O)C(C)(C)[C@@H]5CC[C@]43C)[C@@H]2C1

>  <fold change (FC)>
1.07

$$$$
>  <Compound structure string>
CC1(C)CC[C@]2(C(=O)NS(=O)(=O)c3ccccc3)CC[C@]3(C)C(=CC[C@@H]4[C@@]5(C)CC[C@H](OC(=O)NS(=O)(=O)c6ccccc6)C(C)(C)[C@@H]5CC[C@]43C)[C@@H]2C1

>  <fold change (FC)>
0.91

$$$$

I. CC1(C)CC[C@]2(C(=O)O)CC[C@]3(C)C(=CC[C@@H]4[C@@]5(C)CC[C@H](O)C(C)(C)[C@@H]5CC[C@]43C)[C@@H]2C1
II. CC1(C)CC[C@]2(C(=O)Nc3cccc4ccccc34)CC[C@]3(C)C(=CC[C@@H]4[C@@]5(C)CC[C@H](OC(=O)Nc6cccc7ccccc67)C(C)(C)[C@@H]5CC[C@]43C)[C@@H]2C1
Input line: Return label of the item with the larger fold change (FC). Candidates: I , II . Lab log: write the label of the selected item as the result.
Output line: II
